measured on: T1, human CD4 on cells (SKW3 cells; human PBMCs) (human, UniProt P01730 26-458)
T1 construct: whole, on cells; SKW3 CD4 knockout cells served as the negative cell line; also called hCD4
assay notes: FACS confirmation, supernatant on SKW3 WT cells, anti-mouse Fc 647; background gMFI 3300
test readout: SKW3 WT anti-mFc 647, gMFI (gMFI)
One number for each entry, in gMFI.

Parameter requested: SKW3 WT anti-mFc 647, gMFI. Apply to each item below.
1. 75110_06D16A (antibody, V domains shown, Tested as non-clonal AlivaMab Mouse Kappa hybridoma supernatant: human variable domains and human kappa, mouse Fc (detected with anti-mouse Fc)) VH: QVQLQQWGAGLLKPSETLSLTCAVYGGSFSGYYWSWIRQPPGKGLEWIGEINHSGSTNYNPSLKSRVTISVVTSKNQFSLKLSSVTAADTAVYYCARVLNWFDPWGQGTLVTVSS VL: DIQMTQSPSSVSASVGDRVTITCRASQDIADWLAWYQQKPGKAPKLLIYAASSFQSGVPSRFSGSGSGTDFTLTISSLQPEDFATYFCQQANSFPYTFGQGTKLEIK
2. 75110_04F22A (antibody, V domains shown, Tested as non-clonal AlivaMab Mouse Kappa hybridoma supernatant: human variable domains and human kappa, mouse Fc) VH: EVQLVESGGGLVQPGGSLRLSCAASGFTFSSYDIHWVRQATGKGLEWVSTIGTAGDTYYPGSVKGRFTISRENAKNSLYLQMNSLRAGDTAVYYCARGGYYYYGMDVWGQGTTVTVSS VL: EIVLTQSPGTLSLSPGERATLSCRASQSVYSSYLAWYQQKPGQAPRLLIYGASSRATGIPDRFSGSGSGTDFTLTISRLEPEDFAVYYCQQFGTSPFTFGPGTKVDIK
3. 75110_01K10A (antibody, V domains shown, Tested as non-clonal AlivaMab Mouse Kappa hybridoma supernatant: human variable domains and human kappa, mouse Fc) VH: EVQLVESGGALVQPGGSLRLSCAASGFTFRNYDMHWVRQATGKGLEWVSTIGTAGDTYYPGSVKGRFTISRENAKNSLYLQMNSLRAGDTAVYYCARGGDYYYGMDVWGQGTTVTVSS VL: EIVLTQSPDTLSLSPGERATLSCRASQSLSSVYLAWYQQKPGQAPRLLIYGASSRATGIPDRFSGTGSGTDFTLTISRLEPEDFAVYYCQQYGSSPFTFGPGTKVDIK

### Response
[41300, 26900, 24300]
